molecular target: T1, human CD4 on cells (SKW3 cells; human PBMCs) (human, UniProt P01730 26-458); assay: FACS binning on SKW3 cells pre-incubated with supernatant; competitor RPA-T4-PE-Dazzle 594, its signal read; background 783, max binding 15000
T1 construct: whole, on cells; SKW3 CD4 knockout cells served as the negative cell line; also called hCD4
Property: SKW3 FACS Binning RPA-T4-PE-Dazzle 594

Binder	Reported Value
75110_01D24A (antibody, V domains shown, Tested as non-clonal AlivaMab Mouse Kappa hybridoma supernatant: human variable domains and human kappa, mouse Fc) VH: QVQLQQWGAGLLKPSETLSLTCAVYGGSFSGYYWSWIRQPPGKGLEWIGEINHSGSTNYNPSLKSRVTISVDTSENQFSLKLNSVTAADTAVYYCARLVNWFDPWGQGTLVTVSS VL: EIQMTQSPSSVSASVGDRVTITCRASQDISNWLAWYQQKPGKAPNLLIFAASSLQTGVPSRFSGSGSGTDFTLTISSLQPDDFATYYCQQANSFPYSFGQGTNLGIK	15200
